# MEASUREMENT_TARGET: UniProt:P00338
# ASSAY_COMMENT: Inhibition of LDHA in human A673 cells assessed as decrease in lactate production incubated for 2 hrs by lactate oxidase-coupled fluorescence based assay
# Format: cell-based
MEASURED_PROPERTY: pIC50
Please report pIC50 as the negative decimal logarithm of the molar concentration, giving only the number.

Qu. Quick one: pIC50 for NS(=O)(=O)c1ccc(Cc2c(-c3cccc(C#CC4CCCC4)c3)nn(-c3nc(C(=O)O)cs3)c2CC2CC2)cc1F ?
Ans. 6.53

Qu. For NS(=O)(=O)c1ccc(Cc2c(-c3ccc(F)c(C#CCCO)c3)nn(-c3nc(C(=O)O)cs3)c2CC2CC2)cc1F then?
Ans. 5.61

Qu. Similarly, NS(=O)(=O)c1ccc(Cc2c(-c3cccc(-c4ccccc4)c3)nn(-c3nc(C(=O)O)cs3)c2CC2CC2)cc1F ?
Ans. 6.21

Qu. Field entry: CC(C)CC#Cc1cc(-c2nn(-c3nc(C(=O)O)cs3)c(CC3CC3)c2Cc2ccc(S(N)(=O)=O)c(F)c2)ccc1F
Ans. 6.55

Qu. How about this compound: CC#Cc1cccc(-c2nn(-c3nc(C(=O)O)cs3)c(CC3CC3)c2Cc2ccc(S(N)(=O)=O)c(F)c2)c1
Ans. 6.15

Qu. Ok, now C/C=C/c1cc(-c2nn(-c3nc(C(=O)O)cs3)c(CC3CC3)c2Cc2ccc(S(N)(=O)=O)c(F)c2)ccc1F
Ans. 6.39

Qu. Cool, now Cc1nc(C#Cc2cccc(-c3nn(-c4nc(C(=O)O)cs4)c(CCC4CC4)c3Cc3ccc(S(N)(=O)=O)c(F)c3)c2)cs1
Ans. 6.52

Provenance of the data: ChEMBL document CHEMBL4665801
